- Tested on: PANC-1 cells
- method-notes: CellTiter-Glo luminescent cell viability assay, PANC-1
- details: PANC-1; 2.8 µM; 72 h; second-set screening; mean ± SD, n = 2
recorded-endpoint: Cell Viability (% of Control) 2.8 µM

Task: Reported Cell Viability (% of Control) 2.8 µM for CNCC#Cc1cccc(CN2C(=O)C3=C(CCN(Cc4ccc(-n5cc(-[c-]6cccc6)nn5)cc4)C3)N3CCN=C23)c1.[Fe+2].c1cc[cH-]c1 [38a] : what is it?
Output: 44 ± 41 % of Control

Task: Try this compound next: O=C1C2=C(CCN(Cc3ccc(-n4cc(-[c-]5cccc5)nn4)cc3)C2)N2CCN=C2N1Cc1cccc(C#CCN2CCCCC2)c1.[Fe+2].c1cc[cH-]c1 [40a]
Output: 119 ± 4 % of Control

Task: Another compound: NCC#Cc1cccc(CN2C(=O)C3=C(CCN(Cc4ccc(NC(=O)[c-]5cccc5)cc4)C3)N3CCN=C23)c1.[Fe+2].c1cc[cH-]c1 [23a]
Output: 98 ± 7 % of Control

---

- method-notes: CellTiter-Glo cell viability assay, HEK293T WT
- details: human, HEK293T WT cells, HEK293T WT Cell viability (% of controll), 0.6 μM; 72 h; dose–response, individual replicates
recorded-endpoint: viability at 72 h, 0.6 µM (%)
Numbers only here, please. The scale is %.

Task: What measured viability at 72 h, 0.6 µM goes with CNCC#Cc1cccc(CN2C(=O)C3=C(CCN(Cc4ccc(-n5cc(-c6ccccc6)nn5)cc4)C3)N3CCN=C23)c1 [38b] ?
Output: 107

---

Would you kindly list PANC-1 Cell viability (% of controll) for each of these compounds?
- System: PANC-1 cells
- method-notes: CellTiter-Glo luminescent cell viability assay, PANC-1
- details: 17.3 μM; 72 h; dose–response, individual replicates

Task: Any idea what PANC-1 Cell viability (% of controll) was measured for CNCC#Cc1cccc(CN2C(=O)C3=C(CCN(Cc4ccc(-n5cc(-[c-]6cccc6)nn5)cc4)C3)N3CCN=C23)c1.[Fe+2].c1cc[cH-]c1 [38a] ?
Output: 0 % of controll

Task: Thanks! And CNCC#Cc1cccc(CN2C(=O)C3=C(CCN(Cc4ccc(-n5cc(-c6cc(F)cc(F)c6)nn5)cc4)C3)N3CCN=C23)c1 [43c] ?
Output: 0 % of controll

Task: Repeat with NCC#Cc1ccc(CN2C(=O)C3=C(CCN(Cc4ccc(-n5cc(-c6ccccc6)nn5)cc4)C3)N3CCN=C23)cc1 [I/B, reference compound]
Output: 0 % of controll

---

- method-notes: in vitro
- details: human, HEK293T WT Cell viability (% of controll), 26 μM, dose–response, individual replicates
recorded-endpoint: viability at 72 h, 26 µM (%)
Kindly provide the numeric value in % only, without the unit symbol.

Task: Endpoint output: viability at 72 h, 26 µM of Cc1ccccc1CN1C(=O)C2=C(CCN(Cc3ccccc3)C2)N2CCN=C12 [ONC201, reference compound] . Value?
Output: 15

---

- method-notes: in vitro
- details: human, HEK293T WT Cell viability (% of controll), 2.5 μM, dose–response, individual replicates
recorded-endpoint: viability at 72 h, 2.5 µM (%)
Provide only the numeric value, understood in %.

Task: I am curious: what viability at 72 h, 2.5 µM value has been reported for Cc1ccccc1CN1C(=O)C2=C(CCN(Cc3ccccc3)C2)N2CCN=C12 [ONC201, reference compound] ?
Output: 21
